Below, each entry is listed with its recorded IC80.
Tested on: Streptococcus pneumoniae
Assay: ATP bioluminescence test, inhibition of bacterial growth of Streptococcus pneumoniae (IC80)
Type: cell-based
Conditions: 80% inhibition of bacterial growth, ATP/luciferase readout, read-out: IC80 (μM) S. pneumoniae

COMPOUND | SYSTEM_TESTED | DISPLAY_UNIT | IC80
CON=C1C[C@@H](C)O[C@@H](O[C@@H]2[C@@H](C)[C@H](O[C@H]3C[C@H](C)N(CCc4ccncc4)C[C@H](C)O3)[C@@H](C)C(=O)OC([C@@H](C)CO[C@@H]3O[C@H](C)[C@@H](O)[C@@H](OC)[C@H]3OC)[C@H](C)[C@@H](OC(=O)CC(C)C)[C@@H](C)C(=O)[C@@](C)(OC(=O)NCc3ccccc3)C[C@@H]2C)[C@@H]1O (stereo partly shown) | Streptococcus pneumoniae | µM | 0.88
CON=C1C[C@@H](C)O[C@@H](O[C@@H]2[C@@H](C)[C@H](O[C@H]3C[C@H](C)N(Cc4ccccc4)C[C@H](C)O3)[C@@H](C)C(=O)OC([C@@H](C)CO[C@@H]3O[C@H](C)[C@@H](O)[C@@H](OC)[C@H]3OC)[C@H](C)[C@@H](OC(=O)CC(C)C)[C@@H](C)C(=O)[C@@](C)(OC(=O)NCCNC(=O)c3cnc(O)cn3)C[C@@H]2C)[C@@H]1O (stereo partly shown) | Streptococcus pneumoniae | µM | 1.34
CON=C1C[C@@H](C)O[C@@H](O[C@@H]2[C@@H](C)[C@H](O[C@H]3C[C@H](C)N(C)C[C@H](C)O3)[C@@H](C)C(=O)O[C@H]([C@@H](C)CO[C@@H]3O[C@H](C)[C@@H](O)[C@@H](OC)[C@H]3OC)[C@H](C)[C@@H](OC(=O)CC(C)C)[C@@H](C)C(=O)[C@@](C)(OC(=O)NC(C)(C)CNC(=O)c3cnc(O)cn3)C[C@@H]2C)[C@@H]1O | Streptococcus pneumoniae | µM | 2.27
CON=C1C[C@@H](C)O[C@@H](O[C@@H]2[C@@H](C)[C@H](O[C@H]3C[C@@H](C)N(C)C[C@H](C)O3)[C@@H](C)C(=O)OC([C@@H](C)CO[C@@H]3O[C@H](C)[C@@H](O)[C@@H](OC)[C@H]3OC)[C@H](C)[C@@H](OC(=O)CC(C)C)[C@@H](C)C(=O)[C@@](C)(OC(=O)NCCNc3ccnc4cc(Cl)ccc34)C[C@@H]2C)[C@@H]1O (stereo partly shown) | Streptococcus pneumoniae | µM | 0.69
CON=C1C[C@@H](C)O[C@@H](O[C@@H]2[C@@H](C)[C@H](O[C@H]3CC(C)N(C4CC4)C[C@H](C)O3)[C@@H](C)C(=O)OC([C@@H](C)CO[C@@H]3O[C@H](C)[C@@H](O)[C@@H](OC)[C@H]3OC)[C@H](C)[C@@H](OC(=O)CC(C)C)[C@@H](C)C(=O)[C@@](C)(OC(=O)NCc3ccccc3)C[C@@H]2C)[C@@H]1O (stereo partly shown) | Streptococcus pneumoniae | µM | 1.81
CON=C1C[C@@H](C)O[C@@H](O[C@@H]2[C@@H](C)[C@H](O[C@H]3C[C@@H](C)NC[C@H](C)O3)[C@@H](C)C(=O)O[C@H](C(C)CO[C@@H]3O[C@H](C)[C@@H](O)[C@@H](OC)[C@H]3OC)[C@H](C)[C@@H](OC(=O)CC(C)C)[C@@H](C)C(=O)[C@@](C)(OC(=O)NCc3ccccc3)C[C@@H]2C)[C@@H]1O (single isomer, unassigned) | Streptococcus pneumoniae | µM | 1.84
CON=C1C[C@@H](C)O[C@@H](O[C@@H]2[C@@H](C)[C@H](O[C@H]3C[C@H](C)N(C)C[C@H](C)O3)[C@@H](C)C(=O)O[C@H](C(C)CO[C@@H]3O[C@H](C)[C@@H](O)[C@@H](OC)[C@H]3OC)[C@H](C)[C@@H](OC(=O)CC(C)C)[C@@H](C)C(=O)[C@@](C)(OC(=O)NCCc3ccncc3)C[C@@H]2C)[C@@H]1O (stereo partly shown) | Streptococcus pneumoniae | µM | 0.28
